Assay: gradient 5% acetonitrile 3 min, to 50% in 2 min, to 85% in 15 min, held 3 min, 100 µL/min
Conditions: column: Zorbax Extend-C18 2.1 x 50 mm; eluents: water / acetonitrile, 0.1% formic acid
ENDPOINT NAME: RP-LC retention time (s)

Cc1ccc(-c2nc3ncccn3c2NCc2ccc(F)cc2)cc1C :: 789
Cn1nc2n(c1=O)CCN(S(=O)(=O)Cc1ccccc1)CC2 :: 659
CCOC(=O)c1c(S(=O)(=O)N2CCC(C(=O)Nc3cc(C)cc(C)c3)CC2)c(C)n(CC)c1C :: 980
Cn1cc(C(=O)Nc2ccc3c(c2)OCO3)c2cccnc21 :: 730
O=S(=O)(c1ccc2nncn2c1)N(Cc1ccc(F)cc1)c1ccccc1 :: 846
COc1cccc(NC(=O)N2CCCC(C)(C(=O)NCc3ccccc3C)C2)c1 (stereo not given) :: 890
COc1ccc(Cl)cc1NC(=O)CSc1nc2nc(C)cc(C)n2n1 :: 856
COCc1cc(=O)n(CC(=O)N2CCN(c3ccc(F)cc3)CC2)c(N2CCOCC2)n1 :: 819
COc1ccc(-c2cc(C(=O)NC3CCCC3)nn2C2CCS(=O)(=O)C2)cc1 (stereo not given) :: 849
O=C(NCCOc1ccccc1)Nc1ccc(OC(F)(F)F)cc1 :: 910

---

Test: gradient 5% acetonitrile 3 min, to 50% in 2 min, to 85% in 15 min, held 3 min, 100 µL/min
Details: column: Zorbax Extend-C18 2.1 x 50 mm; eluents: water / acetonitrile, 0.1% formic acid
ENDPOINT NAME: RP-LC retention time (s)

Reference set (2 entries):
Cn1cccc1-c1noc(C2CCN(S(=O)(=O)c3ccc4c(c3)OCCO4)CC2)n1 :: 1000
O=C(Cn1cccc1-c1nnc(C2CCC2)o1)Nc1ccc(F)c(Cl)c1 :: 965

P = Cc1noc(/C=C\c2ccc(S(=O)(=O)N3CCN(c4ccccn4)CC3)cc2)c1NC(=O)C1CC1
Q = Cc1ccc(NC(=O)c2cccn2Cc2noc(C3CC3)n2)c(Cl)c1
Enquiry: Exercise: compare P and Q ; which one has the greater RP-LC retention time? Pick one; state its label.
Return: Q
(Q: 1030 s, P: 661 s)

I = CN(C)C(=O)c1ccc2c(c1)nnn2CCNC(=O)Nc1cc(Cl)ccc1Cl
II = Cc1cccc(N2CCN(C(=O)C3c4ccccc4CCN3C(=O)C3CC3)CC2)c1C (centres undefined)
Enquiry: I would appreciate it if you could say which entry, I or II , has the lower RP-LC retention time value. Pick one; state its label.
Return: I

---

Assay: gradient 5% acetonitrile 3 min, to 50% in 2 min, to 85% in 15 min, held 3 min, 100 µL/min
Conditions: column: Zorbax Extend-C18 2.1 x 50 mm; eluents: water / acetonitrile, 0.1% formic acid
ENDPOINT NAME: RP-LC retention time (s)

I = COc1ccc(-c2noc(Cc3nc(-c4ccc(Br)cc4)cs3)n2)cc1OC
II = Cc1ccc2nc(CNC(=O)Cn3nc(C(=O)N4CCCC4)c4ccccc43)[nH]c2c1
Enquiry: I would appreciate it if you could say which entry, I or II , has the lower RP-LC retention time value. Pick one; state its label.
Return: II

1 = CCc1nc(-c2csc(S(=O)(=O)N3CCCC(C(=O)NCc4ccc(F)cc4)C3)c2)no1 (centres undefined)
2 = CCCC(=O)Nc1ccc2nc(N3CCN(c4ccc(OC)cc4)CC3)cc(C(=O)O)c2c1
Enquiry: I would appreciate it if you could say which entry, 1 or 2 , has the lower RP-LC retention time value. Pick one; state its label.
Return: 2

a = Cc1ccc(C)c(-c2coc(-c3ccc(NC(=O)c4ccc(Br)o4)cc3)n2)c1
b = COc1ccc(-c2nnc(COc3ccc(NC(=O)C4CCC4)cc3)o2)cc1
Enquiry: Exercise: compare a and b ; which one has the greater RP-LC retention time? Pick one; state its label.
Return: a
(a: 1310 s, b: 826 s)

a = CCC(=O)Nc1ccc2c(c1)CN(C(=O)c1ccc(C)cc1)C(C(=O)N1CCCC1)C2 (centres undefined)
b = COc1ccc(CN2C=C(C(=O)OCc3nc(-c4ccccc4)no3)C(C)=NS2(=O)=O)cc1
Enquiry: I would appreciate it if you could say which entry, a or b , has the lower RP-LC retention time value. Pick one; state its label.
Return: a
